# Assay: Phase Ia pharmacokinetics, plasma concentration before or after meal
# Type: in vivo, humans
# Experimental conditions: female, human, plasma, oral; 800 mg Icaritin BID
Parameter measured: half-life (h)
Reply numerically in h, unit not repeated.

Entry COc1ccc(-c2oc3c(CC=C(C)C)c(O)cc(O)c3c(=O)c2O)cc1 [Icaritin] — recorded half-life = 4.8
